Entries and their measured selectivity ratio follow.
test: Therapeutic index, ratio of CC50 for human TZM-bl cells to EC50 for HIV1 NL4-3; type: cell-based; settings: read-out: Ratio CC50/EC50
OBSERVED PROPERTY: selectivity ratio

MOLECULE: CCc1cc(=O)c2ccc3c(c2o1)[C@@H](OC(=O)C12CCC(C)(C(=O)O1)C2(C)C)[C@@H](OC(=O)C12CCC(C)(C(=O)O1)C2(C)C)C(C)(C)S3 (some centres not stated)
VALUE OPERATOR: =
ASSAY VALUE: 100
--
MOLECULE: Cc1cc(=O)oc2c3c(ccc12)SC(C)(C)[C@H](OC(=O)[C@@]12CC[C@@](C)(C(=O)O1)C2(C)C)[C@@H]3OC(=O)[C@@]12CC[C@@](C)(C(=O)O1)C2(C)C
VALUE OPERATOR: >
ASSAY VALUE: 238
--
MOLECULE: CCc1cc(=O)c2ccc3c(c2o1)[C@@H](OC(=O)C12CCC(C)(C(=O)O1)C2(C)C)[C@@H](OC(=O)C12CCC(C)(C(=O)O1)C2(C)C)C(C)(C)O3 (some centres not stated)
VALUE OPERATOR: =
ASSAY VALUE: 119
--
MOLECULE: CCc1cc(=O)c2ccc3c(c2o1)[C@@H](OC(=O)C12CCC(C)(C(=O)O1)C2(C)C)[C@@H](OC(=O)C12CCC(C)(C(=O)O1)C2(C)C)[C@H](C)O3 (some centres not stated)
VALUE OPERATOR: =
ASSAY VALUE: 153
--
MOLECULE: CCc1cc(=O)c2ccc3c(c2o1)[C@H](OC(=O)C12CCC(C)(C(=O)O1)C2(C)C)[C@H](OC(=O)C12CCC(C)(C(=O)O1)C2(C)C)[C@@H](C)S3 (some centres not stated)
VALUE OPERATOR: =
ASSAY VALUE: 20.8
--
MOLECULE: Cc1cc(=O)oc2c3c(ccc12)SC(C)(C)[C@@H](OC(=O)[C@@]12CC[C@@](C)(C(=O)O1)C2(C)C)[C@H]3OC(=O)[C@@]12CC[C@@](C)(C(=O)O1)C2(C)C
VALUE OPERATOR: >
ASSAY VALUE: 3.6
--
MOLECULE: CCc1cc(=O)c2ccc3c(c2o1)[C@@H](OC(=O)C12CCC(C)(C(=O)O1)C2(C)C)[C@@H](OC(=O)C12CCC(C)(C(=O)O1)C2(C)C)[C@H](C)S3 (some centres not stated)
VALUE OPERATOR: =
ASSAY VALUE: 48

* * *

assay: Cytotoxicity against human TZM-bl cells assessed as inhibition of cell growth; type: cell-based

MOLECULE: CCc1cc(=O)c2ccc3c(c2o1)[C@@H](OC(=O)C12CCC(C)(C(=O)O1)C2(C)C)[C@@H](OC(=O)C12CCC(C)(C(=O)O1)C2(C)C)C(C)(C)S3 (stereo not given in full)
MEASURE UNIT: µM
VALUE OPERATOR: =
CC50: 5.4
//
MOLECULE: Cc1cc(=O)oc2c3c(ccc12)SC(C)(C)[C@@H](OC(=O)[C@@]12CC[C@@](C)(C(=O)O1)C2(C)C)[C@H]3OC(=O)[C@@]12CC[C@@](C)(C(=O)O1)C2(C)C
MEASURE UNIT: µM
VALUE OPERATOR: >
CC50: 30.6
//
MOLECULE: CCc1cc(=O)c2ccc3c(c2o1)[C@H](OC(=O)C12CCC(C)(C(=O)O1)C2(C)C)[C@H](OC(=O)C12CCC(C)(C(=O)O1)C2(C)C)[C@@H](C)S3 (stereo not given in full)
MEASURE UNIT: µM
VALUE OPERATOR: =
CC50: 3.83
//
MOLECULE: CCc1cc(=O)c2ccc3c(c2o1)[C@@H](OC(=O)C12CCC(C)(C(=O)O1)C2(C)C)[C@@H](OC(=O)C12CCC(C)(C(=O)O1)C2(C)C)[C@H](C)S3 (stereo not given in full)
MEASURE UNIT: µM
VALUE OPERATOR: =
CC50: 1.84
//
MOLECULE: CCc1cc(=O)c2ccc3c(c2o1)[C@@H](OC(=O)C12CCC(C)(C(=O)O1)C2(C)C)[C@@H](OC(=O)C12CCC(C)(C(=O)O1)C2(C)C)[C@H](C)O3 (stereo not given in full)
MEASURE UNIT: µM
VALUE OPERATOR: =
CC50: 4.55

Entry source: ChEMBL document CHEMBL1833958
